Item-by-item account of EC50
- experimental_target: androgen receptor (hAR) (Homo sapiens (Human))
- protocol_text: Test of transcriptional activity (hAR / ARE-Luc dual-luciferase assay in CHO cells)
- Format: cell-based
- experimental_setup: EC50 [nM] (mean ± SE), CHO cells with hAR and ARE-Luc, 24 hours; 10 nM DHT = 100%
I only need the number, in nM, no unit after it.

Guide cases for EC50, answers given:
molecule	experimental_target	EC50, nM
N#Cc1ccc(N2C[C@@H](COc3ccc(NC(=O)[C@@H]4CCCN4)cc3)O[C@@H]2C(F)(F)F)cc1C(F)(F)F [Example 51, 2,2,2-trifluoroacetate]	androgen receptor (hAR) (Homo sapiens (Human))	165
CC(=O)Nc1ccc(NC(=O)[C@@H]2CN(c3ccc(C#N)c(C(F)(F)F)c3)[C@@H](C(F)(F)F)O2)cc1	androgen receptor (hAR) (Homo sapiens (Human))	5.09
CN(C)C(=O)c1ccc(OC[C@@H]2CN(c3ccc(C#N)c(C(F)(F)F)c3)[C@@H](C(F)(F)F)O2)cc1	androgen receptor (hAR) (Homo sapiens (Human))	111
CCc1cc(C#N)ccc1NC(=O)[C@@H]1CN(c2ccc(C#N)c(C(F)(F)F)c2)[C@@H](C(F)(F)F)O1	androgen receptor (hAR) (Homo sapiens (Human))	305
N#Cc1ccc(N2C[C@@H](COc3ccccc3)O[C@@H]2C(F)(F)F)cc1C(F)(F)F	androgen receptor (hAR) (Homo sapiens (Human))	107

Record COC(=O)N1CCN(C(=O)[C@@H]2CN(c3ccc(C#N)c(C(F)(F)F)c3)[C@@H](C(F)(F)F)O2)CC1 . Reported EC50: 5.34

Record N#Cc1ccc(SC[C@@H]2CN(c3ccc(C#N)c(C(F)(F)F)c3)[C@@H](C(F)(F)F)O2)cc1 . Reported EC50: 7.5

Record N#Cc1ccc(N2C[C@@H](C(=O)N3CCC(C#N)CC3)O[C@@H]2C(F)(F)F)cc1C(F)(F)F . Reported EC50: 44

----------
- experimental_target: androgen receptor (hAR) (Homo sapiens (Human), UniProt P10275)
- Sequence (P10275 whole entry): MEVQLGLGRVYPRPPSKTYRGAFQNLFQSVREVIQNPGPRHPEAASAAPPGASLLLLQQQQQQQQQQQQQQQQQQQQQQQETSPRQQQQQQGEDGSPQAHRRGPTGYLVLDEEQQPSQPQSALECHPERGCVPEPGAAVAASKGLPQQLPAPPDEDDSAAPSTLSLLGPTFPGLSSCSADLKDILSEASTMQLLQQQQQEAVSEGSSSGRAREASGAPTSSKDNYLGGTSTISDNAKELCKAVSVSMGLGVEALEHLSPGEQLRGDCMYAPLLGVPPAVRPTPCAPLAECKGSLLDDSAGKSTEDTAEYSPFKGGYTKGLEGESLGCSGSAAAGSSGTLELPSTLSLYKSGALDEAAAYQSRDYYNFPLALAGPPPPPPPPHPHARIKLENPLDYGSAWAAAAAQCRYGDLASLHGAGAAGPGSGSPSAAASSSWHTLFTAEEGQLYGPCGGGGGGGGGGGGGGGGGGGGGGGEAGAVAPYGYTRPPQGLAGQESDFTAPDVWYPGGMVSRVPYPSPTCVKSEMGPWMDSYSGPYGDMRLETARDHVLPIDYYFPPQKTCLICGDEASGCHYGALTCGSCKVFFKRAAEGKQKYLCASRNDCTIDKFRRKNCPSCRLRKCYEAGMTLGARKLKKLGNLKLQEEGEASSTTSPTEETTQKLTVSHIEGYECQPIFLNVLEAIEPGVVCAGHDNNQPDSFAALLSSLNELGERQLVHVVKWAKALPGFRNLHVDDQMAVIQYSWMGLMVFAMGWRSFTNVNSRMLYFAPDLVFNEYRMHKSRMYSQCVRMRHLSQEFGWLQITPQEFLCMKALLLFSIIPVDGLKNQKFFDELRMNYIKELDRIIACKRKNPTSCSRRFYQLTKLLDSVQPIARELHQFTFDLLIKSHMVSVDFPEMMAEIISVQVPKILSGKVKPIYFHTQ
- protocol_text: Test of transcriptional activity (hAR / ARE-Luc dual-luciferase assay in CHO cells)
- Format: cell-based
- experimental_setup: EC50 [nM] (mean ± SE), CHO cells with hAR and ARE-Luc, 24 hours; 10 nM DHT = 100%
Counter-ions that a name gives are not always drawn.
attribute_measured: EC50
A bare number is not enough; add the unit after it.

compound	EC50
N#Cc1ccc(N2C[C@@H](C(=O)Nc3ccc(NC(=O)CN)cc3)O[C@@H]2C(F)(F)F)cc1C(F)(F)F [Example 163, hydrochloride]	214 nM
N#Cc1ccc(N2C[C@@H](COc3ccc(NC(=O)CN)cc3)O[C@@H]2C(F)(F)F)cc1C(F)(F)F [Example 50, 2,2,2-trifluoroacetate]	15.6 nM
CC(C)C(=O)Nc1ccc(NC(=O)[C@@H]2CN(c3ccc(C#N)c(C(F)(F)F)c3)[C@@H](C(F)(F)F)O2)cc1	288 nM

From here, focus on the item given below.
Entry CO/N=C/c1ccc(OC[C@@H]2CN(c3ccc(C#N)c(C(F)(F)F)c3)[C@@H](C(F)(F)F)O2)cc1 ; assay system androgen receptor (hAR) (Homo sapiens (Human), UniProt P10275); EC50 recorded at 9.84 nM

----------
- experimental_target: androgen receptor (hAR) (Homo sapiens (Human))
- protocol_text: Test of transcriptional activity (hAR / ARE-Luc dual-luciferase assay in CHO cells)
- Type: cell-based
- experimental_setup: EC50 [nM] (mean ± SE), CHO cells with hAR and ARE-Luc, 24 hours; 10 nM DHT = 100%
attribute_measured: EC50 (nM)
I only need the number, in nM, no unit after it.

smiles_entry	EC50 [nM]
N#Cc1ccc(OC[C@@H]2CN(c3ccc(C#N)c(C(F)(F)F)c3)[C@@H]([C@H](O)C(F)(F)F)O2)cc1	1700
COC(=O)c1ccc(OC[C@@H]2CN(c3ccc(C#N)c(C(F)(F)F)c3)[C@@H](C(F)(F)F)O2)cc1	13.1
N#Cc1ccc(N2C[C@@H](COc3ccc([N+](=O)[O-])cc3)O[C@@H]2C(F)(F)F)cc1C(F)(F)F	20

Record N#Cc1ccc(N2C[C@@H](C(=O)Nc3ccc(N)cc3Cl)O[C@@H]2C(F)(F)F)cc1C(F)(F)F . Reported EC50: 521

Record N#Cc1ccc(N2C[C@@H](C(=O)Nc3ccc(N)cc3)O[C@@H]2C(F)(F)F)cc1C(F)(F)F . Reported EC50: 323

Record N#Cc1ccc(NC(=O)[C@@H]2CN(c3ccc(C#N)c(C(F)(F)F)c3)[C@@H](C(F)(F)F)O2)cc1C(F)(F)F . Reported EC50: 11.1

Record N#Cc1ccc(N2C[C@@H](COc3ccc(/C=N/O)cc3)O[C@@H]2C(F)(F)F)cc1Cl . Reported EC50: 0.658

Data origin: patent US9809583B2
